Test system: HCT-116
Assay: Cytotoxicity against HCT116 cell line
Assay type: functional, cell-based
Conditions: Homo sapiens
Fulfilled if IC50 is below 5 µM. Not fulfilled if not; exact matches included in Not fulfilled.

smiles.input: CC(C)C1=C(Sc2ccccc2)c2ccc3c(c2C(=O)C1=O)CCCC3(C)C
answer.label: Not fulfilled
//
smiles.input: CC(C)C1=C(Nc2ccc([N+](=O)[O-])cc2)c2ccccc2C(=O)C1=O
answer.label: Fulfilled
//
smiles.input: CC(C)C1=C(Sc2ccc(F)cc2)c2ccccc2C(=O)C1=O
answer.label: Not fulfilled
//
smiles.input: CC(C)C1=C(Sc2ccc(F)cc2)c2ccc3c(c2C(=O)C1=O)CCCC3(C)C
answer.label: Not fulfilled
//
smiles.input: CC(C)C1=C(Nc2ccc([N+](=O)[O-])cc2)c2ccc3c(c2C(=O)C1=O)CCCC3(C)C
answer.label: Not fulfilled
//
smiles.input: COc1ccc(NC2=C(C(C)C)C(=O)C(=O)c3c2ccc2c3CCCC2(C)C)cc1
answer.label: Not fulfilled
//
smiles.input: CC(C)C1=C(Nc2ccccc2)c2ccc3c(c2C(=O)C1=O)CCCC3(C)C
answer.label: Not fulfilled
//
smiles.input: CC(=O)Nc1ccc(SC2=C(C(C)C)C(=O)C(=O)c3c2ccc2c3CCCC2(C)C)cc1
answer.label: Not fulfilled
//
smiles.input: COc1ccc(NC2=C(C(C)C)C(=O)C(=O)c3ccccc32)cc1
answer.label: Fulfilled

---

Item-by-item account of IC50
System: HCT-116
Experiment: Cytotoxicity against HCT116 cell line
Assay type: functional, cell-based
Conditions: Homo sapiens
assay.endpoint: IC50 (µM)

compound: CC(C)C1=Cc2ccccc2C(=O)C1=O
tgt: HCT-116
assay.endpoint: IC50
units.of.measure: µM
reported.measurement: 4

compound: CC(C)C1=Cc2ccc3c(c2C(=O)C1=O)CCCC3(C)C [MILTIRONE]
tgt: HCT-116
assay.endpoint: IC50
units.of.measure: µM
reported.measurement: 12.4

compound: Cc1ccc(NC2=C(C(C)C)C(=O)C(=O)c3ccccc32)cc1
tgt: HCT-116
assay.endpoint: IC50
units.of.measure: µM
reported.measurement: 6.16

compound: CC(C)C1=C(c2ccccc2)c2ccc3c(c2C(=O)C1=O)CCCC3(C)C
tgt: HCT-116
assay.endpoint: IC50
units.of.measure: µM
reported.measurement: 6.28

compound: CC(C)C1=C(Sc2ccc(Br)cc2)c2ccccc2C(=O)C1=O
tgt: HCT-116
assay.endpoint: IC50
units.of.measure: µM
reported.measurement: 5.85

compound: CC(C)C1=C(c2ccccc2)c2ccccc2C(=O)C1=O
tgt: HCT-116
assay.endpoint: IC50
units.of.measure: µM
reported.measurement: 29.6

compound: CC(C)C1=C(Sc2ccccc2)c2ccccc2C(=O)C1=O
tgt: HCT-116
assay.endpoint: IC50
units.of.measure: µM
reported.measurement: 8.03

compound: Cc1ccc(NC2=C(C(C)C)C(=O)C(=O)c3c2ccc2c3CCCC2(C)C)cc1
tgt: HCT-116
assay.endpoint: IC50
units.of.measure: µM
reported.measurement: 24.9

compound: CC(=O)Nc1ccc(SC2=C(C(C)C)C(=O)C(=O)c3ccccc32)cc1
tgt: HCT-116
assay.endpoint: IC50
units.of.measure: µM
reported.measurement: 6.32

compound: CC(C)C1=C(Nc2ccccc2)c2ccccc2C(=O)C1=O
tgt: HCT-116
assay.endpoint: IC50
units.of.measure: µM
reported.measurement: 8.22

---

Biological target: Tyrosine-protein phosphatase non-receptor type 1 (Homo sapiens)
Sequence (P18031 whole entry): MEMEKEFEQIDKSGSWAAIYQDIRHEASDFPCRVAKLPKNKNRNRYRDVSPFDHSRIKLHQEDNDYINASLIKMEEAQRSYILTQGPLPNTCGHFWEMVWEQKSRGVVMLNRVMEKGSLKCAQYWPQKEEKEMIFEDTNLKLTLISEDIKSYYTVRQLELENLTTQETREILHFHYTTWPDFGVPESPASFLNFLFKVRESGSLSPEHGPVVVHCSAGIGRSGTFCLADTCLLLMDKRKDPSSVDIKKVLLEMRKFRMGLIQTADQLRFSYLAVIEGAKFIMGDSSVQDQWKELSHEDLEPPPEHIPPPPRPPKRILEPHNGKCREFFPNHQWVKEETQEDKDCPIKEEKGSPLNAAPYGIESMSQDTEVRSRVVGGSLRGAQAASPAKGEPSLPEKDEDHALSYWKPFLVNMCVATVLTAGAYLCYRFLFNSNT
Experiment: Inhibitory activity against human PTP1B

compound: CC(C)C1=C(Nc2ccc([N+](=O)[O-])cc2)c2ccc3c(c2C(=O)C1=O)CCCC3(C)C
IC50: Not Active
//
compound: CC(C)C1=C(Nc2ccccc2)c2ccccc2C(=O)C1=O
IC50: Not Active
//
compound: CC(C)C1=Cc2ccccc2C(=O)C1=O
IC50: Not Active
//
compound: CC(C)C1=Cc2ccc3c(c2C(=O)C1=O)CCCC3(C)C [MILTIRONE]
IC50: Not Active
//
compound: COc1ccc(NC2=C(C(C)C)C(=O)C(=O)c3c2ccc2c3CCCC2(C)C)cc1
IC50: Not Active
//
compound: Cc1ccc(NC2=C(C(C)C)C(=O)C(=O)c3c2ccc2c3CCCC2(C)C)cc1
IC50: Not Active
//
compound: CC(C)C1=C(c2ccccc2)c2ccccc2C(=O)C1=O
IC50: Not Active
//
compound: COc1ccc(NC2=C(C(C)C)C(=O)C(=O)c3ccccc32)cc1
IC50: Not Active

---

Test system: A549
Test: Cytotoxicity against A549 cell line
Format: functional, cell-based
Conditions: Homo sapiens
pIC50: −log10 of the molar value.
Item-by-item account of pIC50

smiles.input: CC(C)C1=C(c2ccccc2)c2ccc3c(c2C(=O)C1=O)CCCC3(C)C
pIC50: 5.20

smiles.input: CC(C)C1=Cc2ccccc2C(=O)C1=O
pIC50: 5.38

smiles.input: CC(C)C1=C(Nc2ccc([N+](=O)[O-])cc2)c2ccccc2C(=O)C1=O
pIC50: 5.18

smiles.input: CC(C)C1=C(Sc2ccccc2)c2ccc3c(c2C(=O)C1=O)CCCC3(C)C
pIC50: 4.57

smiles.input: CC(C)C1=Cc2ccc3c(c2C(=O)C1=O)CCCC3(C)C
pIC50: 4.61

smiles.input: CC(C)C1=C(Nc2ccc([N+](=O)[O-])cc2)c2ccc3c(c2C(=O)C1=O)CCCC3(C)C
pIC50: 5.27

smiles.input: Cc1ccc(NC2=C(C(C)C)C(=O)C(=O)c3c2ccc2c3CCCC2(C)C)cc1
pIC50: 5.37

smiles.input: CC(C)C1=C(c2ccccc2)c2ccccc2C(=O)C1=O
pIC50: 4.61

smiles.input: CC(C)C1=C(Sc2ccc(Br)cc2)c2ccccc2C(=O)C1=O
pIC50: 5.23

smiles.input: CC(C)C1=C(Sc2ccc(Br)cc2)c2ccc3c(c2C(=O)C1=O)CCCC3(C)C
pIC50: 5.29

smiles.input: CC(C)C1=C(Sc2ccc(F)cc2)c2ccccc2C(=O)C1=O
pIC50: 4.69

smiles.input: CC(C)C1=C(Nc2ccccc2)c2ccccc2C(=O)C1=O
pIC50: 4.60

smiles.input: CC(=O)Nc1ccc(SC2=C(C(C)C)C(=O)C(=O)c3c2ccc2c3CCCC2(C)C)cc1
pIC50: 4.81

smiles.input: CC(=O)Nc1ccc(SC2=C(C(C)C)C(=O)C(=O)c3ccccc32)cc1
pIC50: 5.13

smiles.input: CC(C)C1=C(Sc2ccc(F)cc2)c2ccc3c(c2C(=O)C1=O)CCCC3(C)C
pIC50: 5.90

smiles.input: Cc1ccc(NC2=C(C(C)C)C(=O)C(=O)c3ccccc32)cc1
pIC50: 5.09

smiles.input: COc1ccc(NC2=C(C(C)C)C(=O)C(=O)c3c2ccc2c3CCCC2(C)C)cc1
pIC50: 5.04

smiles.input: COc1ccc(NC2=C(C(C)C)C(=O)C(=O)c3ccccc32)cc1
pIC50: 4.06

smiles.input: CC(C)C1=C(Sc2ccccc2)c2ccccc2C(=O)C1=O
pIC50: 5.12

smiles.input: CC(C)C1=C(Nc2ccccc2)c2ccc3c(c2C(=O)C1=O)CCCC3(C)C
pIC50: 4.72

---

Target: Tyrosine-protein phosphatase non-receptor type 1 (Homo sapiens, UniProt P18031)
Experiment: Inhibitory activity against human PTP1B
Conditions: read-out: IC50
Recorded IC50 determines the group label, using low: < 7 µM; intermediate: ≥ 7 µM and < 10 µM; high: ≥ 10 µM

smiles.input: CC(C)C1=C(Sc2ccc(F)cc2)c2ccc3c(c2C(=O)C1=O)CCCC3(C)C
answer.label: low

smiles.input: CC(C)C1=C(c2ccccc2)c2ccc3c(c2C(=O)C1=O)CCCC3(C)C
answer.label: low

smiles.input: CC(=O)Nc1ccc(SC2=C(C(C)C)C(=O)C(=O)c3c2ccc2c3CCCC2(C)C)cc1
answer.label: intermediate

smiles.input: CC(C)C1=C(Sc2ccc(F)cc2)c2ccccc2C(=O)C1=O
answer.label: intermediate

smiles.input: CC(C)C1=C(Nc2ccc([N+](=O)[O-])cc2)c2ccccc2C(=O)C1=O
answer.label: high

smiles.input: Cc1ccc(NC2=C(C(C)C)C(=O)C(=O)c3ccccc32)cc1
answer.label: high

smiles.input: CC(C)C1=C(Sc2ccccc2)c2ccccc2C(=O)C1=O
answer.label: high

smiles.input: CC(=O)Nc1ccc(SC2=C(C(C)C)C(=O)C(=O)c3ccccc32)cc1
answer.label: intermediate

smiles.input: CC(C)C1=C(Sc2ccc(Br)cc2)c2ccccc2C(=O)C1=O
answer.label: intermediate

smiles.input: CC(C)C1=C(Sc2ccccc2)c2ccc3c(c2C(=O)C1=O)CCCC3(C)C
answer.label: high

smiles.input: CC(C)C1=C(Nc2ccccc2)c2ccc3c(c2C(=O)C1=O)CCCC3(C)C
answer.label: high

FYI, the data here is from ChEMBL document CHEMBL1146142.
